These entries and their values trace back to PubChem BioAssay (EPA / NIEHS).

- Read-out: Pselectin, SELP (gene 6403)
- ASSAY_NAME: BSK_4H_Pselectin: BioMAP Diversity Plus: 4H Assay for Pselectin Biomarker Activity (AID 2283026)
- MEASUREMENT_SETUP: primary human endothelial cells (HUVEC); actives raise or lower the signal
Calls of active or inactive are those of the source. How the source made its calls: active means hit-call score of the fitted dose curve at least 0.9, where 1 is the maximum; inactive means score below 0.9.
METRIC: AC50

CCNc1nc(NC(C)(C)C)nc(SC)n1; inactive
C[C@@H]1C[C@@H]([C@H](O)CC2CC(=O)NC(=O)C2)C(=O)[C@@H](C)C1; 3.9 µM (active)
ClCC(Cl)CCl; inactive
CC1(C)Cc2cccc(O)c2O1; inactive
O=c1[nH]c(=O)[nH]c(=O)[nH]1; inactive
CC(C)(C)c1cc(O)ccc1O; 20 µM (active)
OCc1ccco1; inactive
O=Cc1cccc(Oc2ccccc2)c1; inactive

Item: CC(C)CCCCCCOC(=O)c1ccccc1C(=O)OCCCCCCC(C)C | AC50: inactive

Item: O=[N+]([O-])c1ccc(O)c([N+](=O)[O-])c1 | AC50: inactive

Item: Oc1cccc2cccnc12 | AC50: 5.54 µM (active)

Item: O=C(O)C(Cl)(Cl)Cl | AC50: inactive

Item: C=C(C)C(=O)[O][Sn]([CH2]CCC)([CH2]CCC)[CH2]CCC | AC50: 0.148 µM (active)

Item: CCOP(=S)(OCC)Oc1ccc(S(C)=O)cc1 (configuration not stated) | AC50: inactive

Item: O=C(Nc1ccc2[nH]ccc2c1)c1cc2cc(F)ccc2n1Cc1cccc(F)c1 | AC50: 7.85 µM (active)

Item: ClC1=C(Cl)[C@]2(Cl)[C@H]3[C@H]([C@H]4C=C[C@H]3C4)[C@@]1(Cl)C2(Cl)Cl | AC50: 7.17 µM (active)

Item: COC(=O)Cc1ccccc1 | AC50: inactive

Item: COP(=S)(OC)Oc1ccc(S(=O)(=O)N(C)C)cc1 | AC50: inactive

Item: COP(=S)(OC)Oc1ccc(Sc2ccc(OP(=S)(OC)OC)cc2)cc1 | AC50: 14.5 µM (active)

Item: O=[N+]([O-])c1ccc2c3c(cccc13)CC2 | AC50: inactive

Item: CC(C)(OO)c1ccccc1 | AC50: inactive

Item: COc1cc(OC)nc(NC(=O)NS(=O)(=O)c2ncccc2C(=O)N(C)C)n1 | AC50: inactive

Item: Nc1ccc(-c2ccc(N)c(Cl)c2)cc1Cl | AC50: inactive

Item: CCC(=O)C(CC(C)N(C)C)(c1ccccc1)c1ccccc1 (configuration not stated) | AC50: inactive

Item: CCN1CCC2(CC1)COc1cc3c(cc12)N(C(=O)c1ccc(-c2ccc(-c4nnc(C)o4)cc2C)cc1)CC3 | AC50: 12 µM (active)

###

- ASSAY_NAME: ATG_Ets_CIS: Attagene CIS-FACTORIAL HepG2 Assay for human Erythroblast Transformation Specific (ETS) (AID 2282941)
- MEASUREMENT_SETUP: HepG2 ETS cis-reporter transcription, actives raise or lower the signal
Calls of active or inactive are those of the source. The calls were made as follows: active = hit-call score of the fitted dose curve at least 0.9, where 1 is the maximum; inactive = score below 0.9.
Respond with a class label; see active, inactive

The examples below pair each entry with its known result.
CCC(C)(C)c1ccc(O)c(C(C)(C)CC)c1; inactive
CC1(C)CCC(Cc2ccc(Cl)cc2)C1(O)Cn1cncn1 (stereo not drawn); inactive
OCC(O)CCl (stereo not drawn); inactive
COc1ccccc1OC; inactive
CCC(C)c1cccc(C(C)CC)c1O (stereo not drawn); inactive

Now look at this entry.
Query: Kindly provide the recorded test outcome for the following compound: O=C/C=C/c1ccccc1
Result: inactive
